# Test system: NCI-H292
# assay_overview: In vitro proliferation (MTT) assay in presence and absence of NE, NCI-H292
# Type: cell-based
# run_conditions: Homo sapiens, absence of hNE, 72 h, read-out: NCI H292 IC50
pIC50: −log10 of the molar value.
attribute_measured: pIC50

> print(dat)
                               smiles.input  attribute.measured  readout.value
1  CCc1c2c(nc3ccccc13)-c1cc3c(c(=O)n1C2)COC(=O)[C@]3(O)CC               pIC50           8.81
